- Test system: murine mammary carcinoma cell line (4T1)
- ASSAY_PROTOCOL: MTT anti-proliferative assay, 4T1
- Assay type: cell-based
- CONDITION_SET: read-out: 4T1 IC50, 48-hour treatment, mean ± SD (n = 2)
Entries annotated with measured pIC50
Entry type: numeric. Quantity: pIC50, the -log10 of concentration in molar units.

Worked set:
>  <COMPOUND>
O=[N+]([O-])c1ccc(-c2noc(-c3cccs3)c2C(F)(F)F)cc1 [TTI-12]

>  <pIC50>
4.77

$$$$
>  <COMPOUND>
FC(F)(F)c1c(-c2cnn3c(-c4ccccc4)ccnc23)noc1-c1cccs1 [TTI-15]

>  <pIC50>
4.84

$$$$
>  <COMPOUND>
COc1ccc(-c2noc(-c3cccs3)c2C(F)(F)F)cc1OC [TTI-4]

>  <pIC50>
4.94

$$$$
>  <COMPOUND>
COc1ccc(-c2noc(-c3ccc(C)s3)c2C(F)(F)F)cc1OC [TTI-13]

>  <pIC50>
4.82

$$$$
>  <COMPOUND>
COc1cc(-c2noc(-c3cccs3)c2C(F)(F)F)cc(OC)c1OC [TTI-6]

>  <pIC50>
4.96

$$$$
>  <COMPOUND>
COc1ccc(-c2noc(-c3cccs3)c2C(F)F)cc1OC [TTI-14]

>  <pIC50>
4.93

$$$$
>  <COMPOUND>
FC(F)(F)c1c(-c2ccc(Cl)cc2)noc1-c1cccs1 [TTI-9]

>  <pIC50>
4.66

$$$$
>  <COMPOUND>
FC(F)(F)c1ccc(-c2noc(-c3cccs3)c2C(F)(F)F)cc1 [TTI-11]

>  <pIC50>
4.71

$$$$
>  <COMPOUND>
COc1ccc(-c2noc(-c3cccs3)c2C(F)(F)F)cc1 [TTI-3]

>  <pIC50>
4.61

$$$$

Lookup: Look up pIC50 for this compound: FC(F)(F)c1c(-c2ccc3c(c2)OCCO3)noc1-c1cccs1 [TTI-5]
Found: 4.54
